pEC50 for assorted molecules
target: Atypical chemokine receptor 3 (Homo sapiens); assay: Agonist activity at human CXCR7 expressed in HEK293 cells assessed as reduction of receptor surface expression after 1 hr by ELISA based internalization assay; type: functional, cell-based
Sequence (P25106 whole entry): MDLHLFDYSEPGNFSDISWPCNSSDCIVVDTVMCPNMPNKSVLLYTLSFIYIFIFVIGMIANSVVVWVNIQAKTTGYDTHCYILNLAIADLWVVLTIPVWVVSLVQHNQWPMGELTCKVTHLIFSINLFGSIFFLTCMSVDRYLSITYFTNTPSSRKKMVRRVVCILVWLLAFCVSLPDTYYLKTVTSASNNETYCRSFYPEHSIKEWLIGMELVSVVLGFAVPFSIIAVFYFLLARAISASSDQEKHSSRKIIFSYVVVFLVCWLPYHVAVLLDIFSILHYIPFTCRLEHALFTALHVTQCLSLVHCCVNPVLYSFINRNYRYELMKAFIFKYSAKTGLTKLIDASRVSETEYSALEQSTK
Here pEC50 is given on a logarithmic scale as minus log10 of the concentration in mol/L.

Which pEC50 reading was recorded for the molecule COc1cc(C(=O)N(CCC2CCCN2C)C/C(C)=C/c2ccccc2F)cc(OC)c1OC (racemic) ?
7.85

Which pEC50 reading was recorded for the molecule COc1ccc(C(=O)N(CCC2CCCN2C)C/C(C)=C/c2ccccc2F)cc1OC (racemic) ?
7.63

* * *

Let's go through some Ki measurements on Atypical chemokine receptor 3 (Homo sapiens) together.
Only the number, expressed in nM, is required.

Here's what some known entries look like.
| molecule | Ki / nM |
| --- | --- |
| COc1ccc(C(=O)N(CCC2CCCN2C)C/C(C)=C/c2ccccc2)cc1C (racemic) | 794 |
| COc1cc(C(=O)N(CCCN2CCCCC2C)C/C(C)=C/c2ccccc2)cc(OC)c1OC (racemic) | 200 |
| COc1cc(C(=O)N(CCCO)C/C(C)=C/c2ccccc2)cc(OC)c1OC | 1580 |

Return Ki measured with Atypical chemokine receptor 3 (Homo sapiens) given this molecule: COc1cc(C(=O)N(CCC2CCCN2C)C/C(C)=C/c2ccc(F)cc2)cc(OC)c1OC (racemic)
50.1

Return Ki measured with Atypical chemokine receptor 3 (Homo sapiens) given this molecule: COc1cc(C(=O)N(CCC2CCCN2C)C/C(C)=C/c2ccccc2)cc(OC)c1OC (racemic)
15.8

Return Ki measured with Atypical chemokine receptor 3 (Homo sapiens) given this molecule: COc1ccc(C(=O)N(CCC2CCCN2C)C/C(C)=C/c2ccc(F)cc2F)cc1OC (racemic)
100

Return Ki measured with Atypical chemokine receptor 3 (Homo sapiens) given this molecule: COc1ccc(C(=O)N(CCC2CCCN2C)C/C(C)=C/c2cccc(F)c2)cc1OC (racemic)
100

Return Ki measured with Atypical chemokine receptor 3 (Homo sapiens) given this molecule: COc1ccc(C(=O)N(CCC2CCCN2C)C/C(C)=C/c2ccc(F)cc2)cc1OC (racemic)
79.4

Return Ki measured with Atypical chemokine receptor 3 (Homo sapiens) given this molecule: COc1ccc(C(=O)N(CCC2CCCN2C)C/C(C)=C/c2cc(F)cc(C(F)(F)F)c2)cc1OC (racemic)
5010

Return Ki measured with Atypical chemokine receptor 3 (Homo sapiens) given this molecule: C/C(=C\c1ccccc1)CN(CCC1CCCN1C)C(=O)c1ccc2c(c1)OCCO2 (racemic)
794

Return Ki measured with Atypical chemokine receptor 3 (Homo sapiens) given this molecule: COc1ccc(C(=O)N(CCC2CCCN2C)C/C(C)=C/c2ccccc2F)cc1OC (racemic)
20

Return Ki measured with Atypical chemokine receptor 3 (Homo sapiens) given this molecule: COc1ccc(C(=O)N(CCC2CCCN2C)C/C(C)=C/c2ccccc2)c(OC)c1 (racemic)
1260

Where these numbers come from: ChEMBL document CHEMBL2010737
